Target: T1, extracellular domain of human CD73 protein (CD73-ECD), C-terminus polyhistidine-tagged (human, UniProt P21589 27-547)
T1 construct: also called Human CD73-ECD; human recombinant CD73 enzyme (CD73 extracellular domain)
T1 sequence: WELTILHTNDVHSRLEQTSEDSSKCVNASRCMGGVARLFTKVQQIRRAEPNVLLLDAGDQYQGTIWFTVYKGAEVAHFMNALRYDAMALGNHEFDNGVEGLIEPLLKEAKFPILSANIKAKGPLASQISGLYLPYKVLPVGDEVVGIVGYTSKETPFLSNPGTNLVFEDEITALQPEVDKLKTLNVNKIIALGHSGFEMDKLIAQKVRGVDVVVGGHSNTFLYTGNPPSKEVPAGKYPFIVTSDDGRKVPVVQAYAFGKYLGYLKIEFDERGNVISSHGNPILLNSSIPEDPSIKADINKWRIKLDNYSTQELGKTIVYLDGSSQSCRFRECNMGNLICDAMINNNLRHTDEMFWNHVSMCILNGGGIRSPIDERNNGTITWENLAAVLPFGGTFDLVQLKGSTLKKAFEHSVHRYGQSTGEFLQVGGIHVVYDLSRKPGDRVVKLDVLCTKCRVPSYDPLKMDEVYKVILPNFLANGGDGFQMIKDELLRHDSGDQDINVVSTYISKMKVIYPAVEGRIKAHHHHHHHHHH
Assay: ELISA, coated CD73-ECD
Readout name: binding result

INSERT INTO assay_data (binder, reported_result) VALUES
  ('Hu001c-30 (antibody, V domains shown, Humanized) VH: QVQLVQSGAEVKKPGASVKVSCKASGYTFTNYYIYWVKQRPGQRLEWIGWIYPGNLNIKYNEKFKGRSTLTADKSASTAYMELSSLRSEDTAVYYCARDDNYAWFAYWGQGTLVTVSS VL: DIQMTQSPSSLSASVGDRVTITCKASQDVSTAVAWYQQKPGKAPKLLIYWTNTRHTGVPSRFSGSGSGTDFTLTISSLQPEDFATYYCQQHYSTPFTFGQGTKLEIK', 'binds'),
  ('Hu002c-3 (antibody, V domains shown, Humanized) VH: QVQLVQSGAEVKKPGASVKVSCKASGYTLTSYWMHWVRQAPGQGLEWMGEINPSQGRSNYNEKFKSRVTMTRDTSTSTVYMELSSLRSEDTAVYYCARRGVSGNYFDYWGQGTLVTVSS VL: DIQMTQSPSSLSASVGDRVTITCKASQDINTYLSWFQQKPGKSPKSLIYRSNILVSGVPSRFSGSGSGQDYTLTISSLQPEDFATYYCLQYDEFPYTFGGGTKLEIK', 'binds'),
  ('Hu002c-15 (antibody, V domains shown, Humanized) VH: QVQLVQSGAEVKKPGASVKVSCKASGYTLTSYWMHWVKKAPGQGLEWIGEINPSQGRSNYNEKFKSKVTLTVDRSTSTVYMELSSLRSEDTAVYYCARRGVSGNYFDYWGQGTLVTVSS VL: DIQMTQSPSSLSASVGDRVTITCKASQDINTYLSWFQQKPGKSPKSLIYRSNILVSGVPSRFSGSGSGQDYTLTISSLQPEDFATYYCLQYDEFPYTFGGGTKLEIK', 'binds');
